molecular target: UniProtKB Q5BJF2; assay: Competition binding with [3H]DTG at S2R in untransfected MCF-7 cells; conditions: read-out: IC50 at S2R; [3H]-DTG, MCF-7; ± SEM
pIC50 listing for selected compounds.
# reply with the number alone; pIC50 is -log10 of concentration in mol/L

CCCN(CCC)CCc1ccc(OC)c(OCCc2ccccc2)c1
7.34

Moving on to the next compound.
INPUT: Need pIC50 of `CN1CCN(CCc2ccc(Cl)c(Cl)c2)CC1` , thanks.
OUTPUT: 6.68

====

The following compounds are shown together with reported pKi values.
target: human S2R (Homo sapiens); assay: Competition binding with [3H]DTG at S2R in untransfected MCF-7 cells; conditions: read-out: Ki at S2R; [3H]-DTG, MCF-7; ± SEM
Sequence (Q5BJF2 whole entry): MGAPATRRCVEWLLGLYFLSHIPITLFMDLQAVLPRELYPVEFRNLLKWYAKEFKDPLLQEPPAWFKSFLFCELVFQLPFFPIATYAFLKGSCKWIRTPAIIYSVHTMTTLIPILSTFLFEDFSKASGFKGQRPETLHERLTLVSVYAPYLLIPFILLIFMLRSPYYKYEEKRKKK
On this scale, pKi is minus log10 of a concentration expressed in M (mol/L).

CCCN(CCC)CCc1ccc(OC)c(OCCc2ccccc2)c1
7.37

We now examine a further compound.
INPUT: Consider the compound shown here: `CN1CCN(CCc2ccc(Cl)c(Cl)c2)CC1` What is its recorded pKi?
OUTPUT: 6.71
